PROTOCOL NOTES: qHTS assay for small molecule disruptors of the mitochondrial membrane potential (AID 720635)
CONDITION NOTES: HepG2 mitochondrial membrane potential, Mito-MPS dye ratio; series mostly up to 83.2 µM
Results filed as inconclusive are left out. Activity calls are given as the source filed them. The call rests on the fitted dose curve; in most records, active means well fitted inhibition curve with a large enough effect in the signal ratio in the repeat runs; inconclusive means weak or mixed curves, or effect the other way; inactive means flat fitted curve, though single readings scatter; the % refers to the signal ratio.
Possible outcomes: label 1 = active, label 0 = inactive

>>> label_value("COc1ccccc1OCCNCC(O)COc1cccc2[nH]c3ccccc3c12 (stereo not drawn)")
"label 1"
>>> label_value("NCCCC(O)(P(=O)(O)O)P(=O)(O)O")
"label 0"
>>> label_value("CCC(C)c1cc([N+](=O)[O-])cc([N+](=O)[O-])c1OC(=O)OC(C)C (stereo not drawn)")
"label 1"
>>> label_value("CC(=O)Oc1ccc(C2(c3ccc(OC(C)=O)cc3)Oc3ccccc3NC2=O)cc1")
"label 1"
>>> label_value("CCCCCCC(C)Nc1ccc(Nc2ccccc2)cc1 (stereo not drawn)")
"label 1"
>>> label_value("CCCCCCOc1ccc(O)cc1")
"label 1"
>>> label_value("CCCCCCCCCCCCCC[n+]1ccccc1")
"label 1"
>>> label_value("CCOC(=O)[C@@](C)(N)Cc1ccc(O)c(O)c1")
"label 0"
>>> label_value("CN(C)c1ccc(N=NS(=O)(=O)O)cc1")
"label 1"
>>> label_value("Cc1ccc(N)cc1O")
"label 1"
>>> label_value("CC1(C)C(=O)N(Br)C(=O)N1Br")
"label 0"
>>> label_value("O=C(c1ccccc1)c1cc(Cl)ccc1O")
"label 1"
>>> label_value("Clc1ccccc1CN1CCc2sccc2C1")
"label 1"
